- EXPERIMENTAL PROTOCOL: Plasma and liver concentration of antiviral peptides after oral gavage in mice
- Type: in vivo, female mice
- CONDITION LABEL: female, mouse, plasma, po, 72 mg/kg
Bridge positions count the residues as written; N and C are the ends. Square brackets hold non-standard residues; d marks the D form. Peptide text beside a SMILES is read from it.
READOUT NAME: level at time molar at 2.5 h (nM)

[[record]]
compound = "CC(=O)NCC(=O)NCC(=O)N[C@@H](Cc1c[nH]cn1)C(=O)N[C@H]1CC(=O)NCCCC[C@@H](C(=O)N[C@@H](C(=O)N2CCC[C@@H]2C(N)=O)C(C)C)NC(=O)[C@H](CCCCN)NC(=O)[C@H](Cc2ccccc2)NC(=O)[C@H](CCCNC(=N)N)NC(=O)[C@H](Cc2ccc(O)cc2)NC1=O [TCMP01] (Ac-GGHDYRFKK[dV][dP]-NH2; lactam 4-9)"
readout_name = "level at time molar at 2.5 h"
units_symbol = "nM"
result_number = 24

